Entry source: paper PMC12045974

Tested on: PBMCs
Protocol Text: Cell viability assay (CCK-8), PBMCs
Type: cell-based, human
Condition Info: Homo sapiens, PBMC, 72 h, PBMCs, dose 0.411523 μM, Fig. 1B, read-out: cell vialibity normalized to Vehicle (DMSO)
viability at 0.411523 µM reference
Entry rule: numbers only, all in %.

CCC[C@@H]1C[C@@H](C(=O)N[C@@H]([C@H]2O[C@H](SC)[C@H](O)[C@@H](O)[C@H]2O)[C@H](C)Cl)N(C)C1 [Clindamycin, clindamycin] :: 95.8
C=C[C@]1(C)C[C@@H](OC(=O)CSCCN(CC)CC)[C@]2(C)[C@H](C)CC[C@]3(CCC(=O)[C@H]32)[C@@H](C)[C@@H]1O [Tiamulin, tiamulin] :: 103
CN(C)c1cc(NC(=O)CNC(C)(C)C)c(O)c2c1C[C@H]1C[C@H]3[C@H](N(C)C)C(O)=C(C(N)=O)C(=O)[C@@]3(O)C(O)=C1C2=O [Tigecycline, tigecycline] :: 89.9

Continue with the next molecule.
q: Name the recorded viability at 0.411523 µM of the molecule listed here: C[C@H]1c2cccc(O)c2C(=O)C2=C(O)[C@]3(O)C(=O)C(C(N)=O)=C(O)[C@@H](N(C)C)[C@@H]3[C@@H](O)[C@@H]21 [Doxycycline, doxycycline]
a: 103

----------
Test system: PBMCs
Protocol Text: Cell viability assay (CCK-8), PBMCs
Assay type: cell-based, human
Condition Info: Homo sapiens, PBMC, 72 h, PBMCs, dose 100 μM, Fig. 1A, read-out: cell vialibity normalized to Vehicle (DMSO)
Reported Endpoint: viability at 100 µM (%)
Entry rule: numbers only, all in %.

CN(C)c1ccc(O)c2c1C[C@H]1C[C@H]3[C@H](N(C)C)C(O)=C(C(N)=O)C(=O)[C@@]3(O)C(O)=C1C2=O :: 46.6
CN(C)c1cc(NC(=O)CNC(C)(C)C)c(O)c2c1C[C@H]1C[C@H]3[C@H](N(C)C)C(O)=C(C(N)=O)C(=O)[C@@]3(O)C(O)=C1C2=O :: 20.8

q: Name the recorded viability at 100 µM of the molecule listed here: C=C1c2cccc(O)c2C(=O)C2=C(O)[C@]3(O)C(=O)C(C(N)=O)=C(O)[C@@H](N(C)C)[C@@H]3[C@@H](O)[C@H]12
a: 30

q: Name the recorded viability at 100 µM of the molecule listed here: CN(C)[C@@H]1C(O)=C(C(N)=O)C(=O)[C@@]2(O)C(O)=C3C(=O)c4c(O)cccc4[C@@](C)(O)[C@H]3C[C@@H]12
a: 42.5

q: Name the recorded viability at 100 µM of the molecule listed here: C[C@H]1c2cccc(O)c2C(=O)C2=C(O)[C@]3(O)C(=O)C(C(N)=O)=C(O)[C@@H](N(C)C)[C@@H]3[C@@H](O)[C@@H]21
a: 34.7

----------
Test system: HeLa cells
Protocol Text: Cell viability assay (CCK-8), HeLa cells
Assay type: cell-based
Condition Info: Homo sapiens, 120 h; HeLa, after 5 days; read-out: IC50 (cell survival)
Reported Endpoint: IC50

q: State the measured IC50 (HeLa cells) of O=C(N[C@H](CO)[C@H](O)c1ccc([N+](=O)[O-])cc1)C(Cl)Cl
a: 41.7 µM
